The reported measurements were obtained from patent US20250073358A1.

- EXPERIMENTAL_TARGET: PD-1/PD-L1 (Homo sapiens (Human), UniProt Q9NZQ7)
- Sequence (Q9NZQ7 19-238): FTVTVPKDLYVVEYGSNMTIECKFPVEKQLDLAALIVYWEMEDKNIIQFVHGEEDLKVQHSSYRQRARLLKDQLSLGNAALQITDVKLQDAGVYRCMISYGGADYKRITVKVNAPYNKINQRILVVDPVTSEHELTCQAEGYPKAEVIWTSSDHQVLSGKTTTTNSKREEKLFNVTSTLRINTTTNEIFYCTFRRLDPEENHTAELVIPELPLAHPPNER
- EXPERIMENTAL_DETAILS: Homogenouse Time-Resolved Fluorescence (HTRF) binding assay, PD-1/PD-L1
The label YES is reserved for IC50 strictly under 0.8 nM; NO covers values equal to or above it.

See these solved cases before continuing.
| COMPOUND | QUALITATIVE_LABEL |
| --- | --- |
| Cc1c(/C=C/c2cc(OCCNC(=O)C3CCC(CNC(=O)CN4CCN(CC(=O)O)CCN(CC(=O)O)CCN(CC(=O)O)CC4)CC3)c(CN3CCCC[C@H]3C(=O)O)cc2C(F)(F)F)cccc1-c1ccccc1 (stereo partly shown) [Compound 9] | NO |
| Cc1c(/C=C/c2cc(OCCCCCNC(=O)CN3CCN(CC(=O)O)CCN(CC(=O)O)CCN(CC(=O)O)CC3)c(CN3CCCC[C@H]3C(=O)O)cc2C(F)(F)F)cccc1-c1ccccc1 [Compound 16] | NO |
| Cc1cc(CN2CCCC[C@H]2C(=O)O)c(OCCCCCN2CCN(CC(=O)O)CCN(CC(=O)O)CCN(CC(=O)O)CC2)cc1/C=C/c1cccc(-c2ccccc2)c1C [Compound 72] | NO |
| Cc1c(/C=C/c2cc(OCCNC(=O)CN3CCN(CC(=O)O)CCN(CC(=O)O)CCN(CC(=O)O)CC3)c(CN3CCCC[C@H]3C(=O)O)cc2C(F)(F)F)cccc1-c1ccccc1 [Compound 3] | NO |

Prompt: Please determine if Cc1c(/C=C/c2cc(OCCNC(=O)C3CCN(C(=O)CN4CCN(CC(=O)O)CCN(CC(=O)O)CCN(CC(=O)O)CC4)CC3)c(CN3CCCC[C@H]3C(=O)O)cc2C(F)(F)F)cccc1-c1ccccc1 [Compound 18] is below 0.8 nM in terms of IC50.
Completion: NO

Prompt: Field: below-cutoff. Rule: recorded IC50 strictly less than 0.8 nM. Subject: Cc1c(/C=C/c2cc(OCCCCCCNC(=O)CN3CCN(CC(=O)O)CCN(CC(=O)O)CCN(CC(=O)O)CC3)c(CN3CCCC[C@H]3C(=O)O)cc2C(F)(F)F)cccc1-c1ccccc1 [Compound 23]
Completion: NO

Prompt: Strictly below 0.8 nM in IC50? Cc1c(/C=C/c2cc(OCCOCCN3CCN(CC(=O)O)CCN(CC(=O)O)CCN(CC(=O)O)CC3)c(CN3CCCC[C@H]3C(=O)O)cc2C(F)(F)F)cccc1-c1ccccc1 [Compound 6]
Completion: NO

###

IC50 values for the compounds below.
- EXPERIMENTAL_TARGET: PD-1/PD-L1 (Homo sapiens (Human))
- EXPERIMENTAL_DETAILS: Homogenouse Time-Resolved Fluorescence (HTRF) binding assay, PD-1/PD-L1

Prompt: Param readout = IC50; param system = PD-1/PD-L1 (Homo sapiens (Human)); param query = Cc1c(/C=C/c2cc(OCCOCCN3CCN(CC(=O)O)CCN(CC(=O)O)CCN(CC(=O)O)CC3)c(CN3CCCC[C@H]3C(=O)O)cc2C(F)(F)F)cccc1-c1ccccc1 [Compound 2] ; response: value
Completion: 1.29 nM

Prompt: Provide the documented IC50 with PD-1/PD-L1 (Homo sapiens (Human)) as the system for Cc1ccc(CCCC(=O)NCCCC[C@H](NC(=O)CN2CCN(CC(=O)O)CCN(CC(=O)O)CCN(CC(=O)O)CC2)C(=O)NCCCCCCOc2cc(/C=C/c3cccc(-c4ccccc4)c3C)c(C(F)(F)F)cc2CN2CCCC[C@H]2C(=O)O)cc1 [Compound 26]
Completion: 33.2 nM

Prompt: Query IC50 on PD-1/PD-L1 (Homo sapiens (Human)) for Cc1c(/C=C/c2cc(OCCOCCN3CCN(CC(=O)O)CCN(CC(=O)O)CCN(CC(=O)O)CC3)c(CN3CCCC[C@@H]3C(=O)O)cc2C(F)(F)F)cccc1-c1ccccc1 [Compound 69]
Completion: 24.8 nM

Prompt: Recall the recorded IC50 for Cc1ccc(CCCC(=O)NCCCC[C@H](NC(=O)CN2CCN(CC(=O)O)CCN(CC(=O)O)CCN(CC(=O)O)CC2)C(=O)NCCOCCOc2cc(/C=C/c3cccc(-c4ccccc4)c3C)c(C(F)(F)F)cc2CN2CCCC[C@H]2C(=O)O)cc1 [Compound 32] with PD-1/PD-L1 (Homo sapiens (Human)) and state it.
Completion: 12.4 nM

Prompt: Form entry - test system: PD-1/PD-L1 (Homo sapiens (Human)); read-out: IC50; compound: Cc1ccc(CCCC(=O)NCCCC[C@H](NC(=O)CN2CCN(CC(=O)O)CCN(CC(=O)O)CCN(CC(=O)O)CC2)C(=O)NCCCCCCOc2cc(/C=C/c3cccc(-c4ccccc4)c3C)c(C(F)(F)F)cc2CN2CCCC[C@H]2C(=O)O)cc1 [Compound 27]
Completion: 13.6 nM

###

- EXPERIMENTAL_TARGET: PD-1/PD-L1 (Homo sapiens (Human), UniProt Q9NZQ7)
- EXPERIMENTAL_DETAILS: Homogenouse Time-Resolved Fluorescence (HTRF) binding assay, PD-1/PD-L1
ASSAY_READOUT: pIC50
Note: pIC50 values are expressed as the negative base-10 logarithm of concentration in M.

Prompt: Which pIC50 value belongs to Cc1c(/C=C/c2cc(OCCNC(=O)C3CCN(C(=O)CN4CCN(CC(=O)O)CCN(CC(=O)O)CCN(CC(=O)O)CC4)CC3)c(CN3CCCC[C@H]3C(=O)O)cc2C(F)(F)F)cccc1-c1ccccc1 [Compound 36] ?
Completion: 9.28

Prompt: Which pIC50 value is on record for Cc1c(/C=C/c2cc(OCCNC(=O)C3CCN(C(=O)CN4CCN(CC(=O)O)CCN(CC(=O)O)CCN(CC(=O)O)CC4)CC3)c(CN3CCCC[C@H]3C(=O)O)cc2C(F)(F)F)cccc1-c1ccccc1 [Compound 38] ?
Completion: 8.95

Prompt: Would you kindly share the measured pIC50 for Cc1c(/C=C/c2cc(OCCCCNC(=O)CN3CCN(CC(=O)O)CCN(CC(=O)O)CCN(CC(=O)O)CC3)c(CN3CCCC[C@H]3C(=O)O)cc2C(F)(F)F)cccc1-c1ccccc1 [Compound 4] ?
Completion: 9.05

Prompt: What value of pIC50 has been reported for the following compound? Cc1c(/C=C/c2cc(OCCCCCCNC(=O)CN3CCN(CC(=O)[O-])CCN(CC(=O)[O-])CCN(CC(=O)[O-])CC3)c(CN3CCCC[C@H]3C(=O)O)cc2C(F)(F)F)cccc1-c1ccccc1.[Ga+3]
Completion: 9.25

Prompt: Would you mind telling me what pIC50 value was observed for Cc1c(/C=C/c2cc(OCCNC(=O)C3CCC(CNC(=O)CN4CCN(CC(=O)O)CCN(CC(=O)O)CCN(CC(=O)O)CC4)CC3)c(CN3CCCC[C@H]3C(=O)O)cc2C(F)(F)F)cccc1-c1ccccc1 (some centres unmarked) [Compound 14] ?
Completion: 9.02

###

Each entry below lists one item and its recorded log10(IC50) value.
- EXPERIMENTAL_TARGET: PD-1/PD-L1 (Homo sapiens (Human))
- EXPERIMENTAL_DETAILS: Homogenouse Time-Resolved Fluorescence (HTRF) binding assay, PD-1/PD-L1
- Excerpt: Homogenouse Time-Resolved Fluorescence (HTRF) binding assay was used to detect the binding ability of the compound of the present disclosure to PD-1/PD-L1. The purchased kit (CisBio, #64CUS000C-1) contains reagents required for experiments such as PD-1, PD-L1, anti-tag1-Eu, Anti-tag2-XL665, Dilute Buffer, and Detection Buffer. • 1. The compound was configured with 100% DMSO into 10 concentrations with a concentration gradient of 3 times. • 2. […] The HTRF values were read with Envision.
A difference of one corresponds to tenfold IC50; all values are log10 with IC50 in nM.

Past entries and their recorded results:
| COMPOUND | log10(IC50) |
| --- | --- |
| Cc1ccc(CCCC(=O)NCCCC[C@H](NC(=O)CN2CCN(CC(=O)O)CCN(CC(=O)O)CCN(CC(=O)O)CC2)C(=O)NCC2CCC(C(=O)NCCOc3cc(/C=C/c4cccc(-c5ccccc5)c4C)c(C(F)(F)F)cc3CN3CCCC[C@H]3C(=O)O)CC2)cc1 (stereo partly drawn) [Compound 22] | 0.70 |
| Cc1ccc(CCCC(=O)NCCCC[C@H](NC(=O)CN2CCN(CC(=O)O)CCN(CC(=O)O)CCN(CC(=O)O)CC2)C(=O)NCCOCCOc2cc(/C=C/c3cccc(-c4ccccc4)c3C)c(C(F)(F)F)cc2CN2CCCC[C@H]2C(=O)O)cc1 [Compound 30] | 0.96 |
| Cc1ccc(CCCC(=O)NCCCC[C@H](NC(=O)CN2CCN(CC(=O)O)CCN(CC(=O)O)CCN(CC(=O)O)CC2)C(=O)NCC2CCC(C(=O)NCCOc3cc(/C=C/c4cccc(-c5ccccc5)c4C)c(C(F)(F)F)cc3CN3CCCC[C@H]3C(=O)O)CC2)cc1 (stereo partly drawn) [Compound 21] | 0.57 |
| N#Cc1c(-c2ccccc2)ccnc1/C=C/c1cc(OCC2CCN(C(=O)CN3CCN(CC(=O)O)CCN(CC(=O)O)CC3)CC2)c(CN2CCCC[C@H]2C(=O)O)cc1C(F)(F)F [Compound 59] | 0.74 |
| Cc1c(/C=C/c2cc(OCCOCCNC(=O)CN3CCN(CC(=O)O)CCN(CC(=O)O)CCN(CC(=O)O)CC3)c(CN3CCCC[C@H]3C(=O)O)cc2C(F)(F)F)cccc1-c1ccccc1 [Compound 31] | -0.22 |
| Cc1c(/C=C/c2cc(OCCOCCN3CCN(CC(=O)O)CCN(CC(=O)O)CCN(CC(=O)O)CC3)c(CN3CCCC[C@@H]3C(=O)O)cc2C(F)(F)F)cccc1-c1ccccc1 [Compound 70] | 1.68 |
| Cc1c(/C=C/c2cc(OCCOCCN3CCN(CC(=O)O)CCN(CC(=O)O)CCN(CC(=O)O)CC3)c(CN3CCCC[C@H]3C(=O)O)cc2C(F)(F)F)cccc1-c1ccccc1 [Compound 7] | -0.01 |
| Cc1c(/C=C/c2cc(OCC3CCN(C(=O)CN4CCN(CC(=O)O)CCN(CC(=O)O)CCN(CC(=O)O)CC4)CC3)c(CN3CCCC[C@H]3C(=O)O)cc2C(F)(F)F)cccc1-c1ccccc1 [Compound 20] | 0.00 |

Okay, next one:
Prompt: Provide the documented log10(IC50) with PD-1/PD-L1 (Homo sapiens (Human)) as the system for Cc1ccc(CCCC(=O)NCCCC[C@H](NC(=O)CN2CCN(CC(=O)O)CCN(CC(=O)O)CCN(CC(=O)O)CC2)C(=O)NCCOc2cc(/C=C/c3cccc(-c4ccccc4)c3C)c(C(F)(F)F)cc2CN2CCCC[C@H]2C(=O)O)cc1 [Compound 13]
Completion: 2.48
